Test: Tmax in Sprague-Dawley rat at 10 mg/kg, po administered via gavage by HPLC-MS/MS analysis
Assay type: ADME, organism-based
Details: in vivo
quantity: Tmax (h)

(1) C=CC(=O)N1CC(n2cc(-c3cc4cc(C)cc(OC)c4s3)c3c(N)ncnc32)C1
(2) C=CC(=O)N1CC[C@H](n2cc(-c3cc4cc(C)cc(OC)c4s3)c3c(N)ncnc32)C1
Please indicate which item has the smaller measured Tmax: 1 versus 2 Answer = label.
1

The origin of these recorded values is ChEMBL document CHEMBL4382193.
